test: Transepithelial transport assay (Papp), HBEC air–liquid interface cultures on Transwells; conditions: human, Papp (apparent permeability), compound set 2; mean ± standard deviation; apical to basal over 24 h; approx. 5 mg/mL apical; three donors (L8 excluded)
measured.endpoint: Papp at 24 h (×10⁻⁶ cm/s)
// return numeric value only (unit: ×10⁻⁶ cm/s, not printed)

>>> result("CC(C)(O/N=C(/C(=O)N[C@@H]1C(=O)N2C(C(=O)[O-])=C(C[n+]3ccccc3)CS[C@H]12)c1csc(N)n1)C(=O)NC(CCC(=O)O)C(=O)O (stereo partly shown)")
2.79
>>> result("CC(C)(O/N=C(\\C(=O)N[C@@H]1C(=O)N2C(C(=O)[O-])=C(C[n+]3ccccc3)CS[C@H]12)c1csc(N)n1)C(=O)O [Ceftazidime pentahydrate, ceftazidime pentahydrate, reference compound]")
2.54

Req: Give me measured Papp at 24 h, please, for this molecule: "CC(C)(O/N=C(/C(=O)N[C@@H]1C(=O)N2C(C(=O)[O-])=C(C[n+]3ccccc3)CS[C@H]12)c1csc(N)n1)C(=O)NCCc1ccccc1"
Resp: 4.65

Req: Give me measured Papp at 24 h, please, for this molecule: "CC(C)(O/N=C(/C(=O)N[C@@H]1C(=O)N2C(C(=O)[O-])=C(C[n+]3ccccc3)CS[C@H]12)c1csc(N)n1)C(=O)NCCCS(=O)(=O)c1ccc(B(O)O)cc1"
Resp: 3.33

Req: Give me measured Papp at 24 h, please, for this molecule: "CC(C)(O/N=C(/C(=O)N[C@@H]1C(=O)N2C(C(=O)[O-])=C(C[n+]3ccccc3)CS[C@H]12)c1csc(N)n1)C(=O)NCCNC(=O)c1ccc(B(O)O)cc1"
Resp: 2.21

Req: Give me measured Papp at 24 h, please, for this molecule: "CC(C)(O/N=C(/C(=O)N[C@@H]1C(=O)N2C(C(=O)[O-])=C(C[n+]3ccccc3)CS[C@H]12)c1csc(N)n1)C(=O)NCCc1cc(O)c(O)cc1Cl"
Resp: 2.94

Req: Give me measured Papp at 24 h, please, for this molecule: CC(C)(O/N=C(/C(=O)N[C@@H]1C(=O)N2C(C(=O)[O-])=C(C[n+]3ccccc3)CS[C@H]12)c1csc(N)n1)C(=O)NC1C(O)O[C@H](CO)[C@@H](O)[C@@H]1O (stereo partly shown)
Resp: 2.75
